Values compiled from the supplement of paper PMC10126150.

Test system: ATP;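 note: ATP exposure 15 min at 22 °C before imaging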
Assay Summary: switch fluorescence ratio, 500 uM ATP over buffer (Cy3 cluster intensity, sum of 5 cycles each) (fold (ratio)); higher = stronger signal-on switching upon ATP binding; sequences stand for … in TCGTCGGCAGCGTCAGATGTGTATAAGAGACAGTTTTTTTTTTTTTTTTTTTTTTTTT…TC
Condition Description: aptamer strand: ATP DNA aptamer (quencher-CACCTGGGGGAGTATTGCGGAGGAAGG + anchor), 100 nM annealed; ATP concentration: 500 uM
Endpoint Name: switch fluorescence ratio
Form field (numeric): enter value without unit.

Below are worked cases with known answers.
[[record]]
sequence_chain = "GGGGCGGACG"
endpoint_value = 0.995

[[record]]
sequence_chain = "CAGGTCGTTT"
endpoint_value = 1.03

[[record]]
sequence_chain = "ATTTTGAAAG"
endpoint_value = 1.01

[[record]]
sequence_chain = "CGGGGTTTT"
endpoint_value = 0.999

[[record]]
sequence_chain = "TACTGCCAGC"
endpoint_value = 1.08


Now look at this one.
Please fill in: switch fluorescence ratio reported for "GCTCGGGGGA" = 0.978

====

switch fluorescence ratio by entry:
Test system: ATP;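 note: ATP exposure 15 min at 22 °C before imaging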
Assay Summary: switch fluorescence ratio, 500 uM ATP over buffer (Cy3 cluster intensity, sum of 5 cycles each) (fold (ratio)); higher = stronger signal-on switching upon ATP binding; sequences stand for … in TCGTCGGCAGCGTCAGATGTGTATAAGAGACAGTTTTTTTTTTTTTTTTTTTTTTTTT…TC
Condition Description: aptamer strand: ATP DNA aptamer (quencher-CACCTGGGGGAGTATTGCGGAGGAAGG + anchor), 100 nM annealed; ATP concentration: 500 uM
Form field (numeric): enter value without unit.

Below are worked cases with known answers.
[[record]]
sequence_chain = "TTGGGTTGGG"
measurement_target = "ATP"
endpoint_value = 0.987

[[record]]
sequence_chain = "AATTAGGGTA"
measurement_target = "ATP"
endpoint_value = 1.03

[[record]]
sequence_chain = "ATGGCTTGTA"
measurement_target = "ATP"
endpoint_value = 0.999

[[record]]
sequence_chain = "TTACATATGA"
measurement_target = "ATP"
endpoint_value = 1.04

[[record]]
sequence_chain = "TCGGGAGTTG"
measurement_target = "ATP"
endpoint_value = 0.952

[[record]]
sequence_chain = "TGGGGAGGAA"
measurement_target = "ATP"
endpoint_value = 1

[[record]]
sequence_chain = "TTGGTTTCGA"
measurement_target = "ATP"
endpoint_value = 0.98

[[record]]
sequence_chain = "TTCAAGGGGA"
measurement_target = "ATP"
endpoint_value = 1.06


Please fill in: switch fluorescence ratio reported for "TTTTTTAAGT" = 0.995

Please fill in: switch fluorescence ratio reported for "GCTTTATAGG" = 1

Please fill in: switch fluorescence ratio reported for "TTCGTGCTTC" = 0.963

Please fill in: switch fluorescence ratio reported for "TTGGGGTGCG" = 0.995

====

Tested on: ATP;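 note: ATP exposure 15 min at 22 °C before imaging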
Assay Summary: switch fluorescence ratio, 500 uM ATP over buffer (Cy3 cluster intensity, sum of 5 cycles each) (fold (ratio)); higher = stronger signal-on switching upon ATP binding; sequences stand for … in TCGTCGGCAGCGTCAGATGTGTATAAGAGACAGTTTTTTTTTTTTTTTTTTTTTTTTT…TC
Condition Description: aptamer strand: ATP DNA aptamer (quencher-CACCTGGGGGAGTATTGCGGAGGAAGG + anchor), 100 nM annealed; ATP concentration: 500 uM
switch fluorescence ratio by entry:
Form field (numeric): enter value without unit.

Below are worked cases with known answers.
[[record]]
sequence_chain = "AGAGCATAGG"
endpoint_name = "switch fluorescence ratio"
endpoint_value = 1.03

[[record]]
sequence_chain = "TCTGGTCCGG"
endpoint_name = "switch fluorescence ratio"
endpoint_value = 0.997

[[record]]
sequence_chain = "GTGTACGTGG"
endpoint_name = "switch fluorescence ratio"
endpoint_value = 1.01

[[record]]
sequence_chain = "ATGGTTAGGG"
endpoint_name = "switch fluorescence ratio"
endpoint_value = 1.03

[[record]]
sequence_chain = "CGAGCCTGGT"
endpoint_name = "switch fluorescence ratio"
endpoint_value = 1.02


Please fill in: switch fluorescence ratio reported for "TGAACGAGGG" = 1.01

Please fill in: switch fluorescence ratio reported for "GACCTATCTT" = 1.03

Please fill in: switch fluorescence ratio reported for "CAGGTTGCCT" = 0.999

Please fill in: switch fluorescence ratio reported for "GGGTTAACGG" = 1

Please fill in: switch fluorescence ratio reported for "AGGGGGTGCT" = 0.997

Please fill in: switch fluorescence ratio reported for "CGCCGTCTGG" = 1.03

Please fill in: switch fluorescence ratio reported for "TTAACCAGCA" = 1.05

Please fill in: switch fluorescence ratio reported for "AGTGTGGGGC" = 1.03

Please fill in: switch fluorescence ratio reported for "TAGTGTTTCT" = 1.01

Please fill in: switch fluorescence ratio reported for "TTATTTTTTG" = 1

Please fill in: switch fluorescence ratio reported for "GTTTGCGCTT" = 1.01

Please fill in: switch fluorescence ratio reported for "AATTCGTTAC" = 1.63

====

switch fluorescence ratio by entry:
Tested on: ATP;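 note: ATP exposure 15 min at 22 °C before imaging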
Assay Summary: switch fluorescence ratio, 500 uM ATP over buffer (Cy3 cluster intensity, sum of 5 cycles each) (fold (ratio)); higher = stronger signal-on switching upon ATP binding; sequences stand for … in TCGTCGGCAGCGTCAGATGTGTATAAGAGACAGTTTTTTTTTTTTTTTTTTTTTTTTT…TC
Condition Description: aptamer strand: ATP DNA aptamer (quencher-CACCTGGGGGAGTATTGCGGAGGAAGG + anchor), 100 nM annealed; ATP concentration: 500 uM
Form field (numeric): enter value without unit.

[[record]]
sequence_chain = "AGAACGTCTG"
endpoint_value = 0.997

[[record]]
sequence_chain = "TTACTGATCC"
endpoint_value = 1.04

[[record]]
sequence_chain = "TTGTGGCCAT"
endpoint_value = 0.974


Please fill in: switch fluorescence ratio reported for "CGCTAGGAGG" = 0.997

Please fill in: switch fluorescence ratio reported for "AAGTTTTTTA" = 0.993

Please fill in: switch fluorescence ratio reported for "AATTTTGTTA" = 0.976

Please fill in: switch fluorescence ratio reported for "AGGTAATACA" = 1.08

Please fill in: switch fluorescence ratio reported for "TATCAGAGGA" = 1.04

Please fill in: switch fluorescence ratio reported for "GGAAAATTAA" = 1

Please fill in: switch fluorescence ratio reported for "AGGGAGATAA" = 1.14

Please fill in: switch fluorescence ratio reported for "CACGGTTTGC" = 1.01

====

System: ATP;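 note: ATP exposure 15 min at 22 °C before imaging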
Assay Summary: switch fluorescence ratio, 500 uM ATP over buffer (Cy3 cluster intensity, sum of 5 cycles each) (fold (ratio)); higher = stronger signal-on switching upon ATP binding; sequences stand for … in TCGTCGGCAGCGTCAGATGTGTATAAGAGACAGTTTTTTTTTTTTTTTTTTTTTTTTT…TC
Condition Description: aptamer strand: ATP DNA aptamer (quencher-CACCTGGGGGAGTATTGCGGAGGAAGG + anchor), 100 nM annealed; ATP concentration: 500 uM
switch fluorescence ratio by entry:
Form field (numeric): enter value without unit.

Below are worked cases with known answers.
[[record]]
sequence_chain = "CCGCCCGGAT"
measurement_target = "ATP"
endpoint_value = 1.14

[[record]]
sequence_chain = "AGGATTTTTG"
measurement_target = "ATP"
endpoint_value = 1.02

[[record]]
sequence_chain = "TTGTATAAGA"
measurement_target = "ATP"
endpoint_value = 1


# "GTTGGAAACA" with ATP: switch fluorescence ratio is 0.945

# "TCATTTTCCG" with ATP: switch fluorescence ratio is 0.996

# "GTTTTTTATT" with ATP: switch fluorescence ratio is 0.996

# "CTTTTTATGG" with ATP: switch fluorescence ratio is 1.03

# "GCCCCCTTCG" with ATP: switch fluorescence ratio is 1.08

====

switch fluorescence ratio by entry:
Tested on: ATP;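 note: ATP exposure 15 min at 22 °C before imaging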
Assay Summary: switch fluorescence ratio, 500 uM ATP over buffer (Cy3 cluster intensity, sum of 5 cycles each) (fold (ratio)); higher = stronger signal-on switching upon ATP binding; sequences stand for … in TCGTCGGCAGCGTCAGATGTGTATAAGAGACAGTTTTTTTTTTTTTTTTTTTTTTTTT…TC
Condition Description: aptamer strand: ATP DNA aptamer (quencher-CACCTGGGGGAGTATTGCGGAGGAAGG + anchor), 100 nM annealed; ATP concentration: 500 uM
Form field (numeric): enter value without unit.

Below are worked cases with known answers.
[[record]]
sequence_chain = "TGGCTAAAAT"
endpoint_value = 0.998

[[record]]
sequence_chain = "TATTTTAGAG"
endpoint_value = 0.966

[[record]]
sequence_chain = "CGAGGGATCA"
endpoint_value = 0.995

[[record]]
sequence_chain = "CTTGTGGATG"
endpoint_value = 1

[[record]]
sequence_chain = "ATGTGTGGGG"
endpoint_value = 1.01


# "GGGGGAGCGT" with ATP: switch fluorescence ratio is 1

# "GAAGCTTTAG" with ATP: switch fluorescence ratio is 1.06

# "TTAAGGTCCG" with ATP: switch fluorescence ratio is 0.987

# "TGACTTTTCG" with ATP: switch fluorescence ratio is 0.995

# "TACAGGGCTG" with ATP: switch fluorescence ratio is 1.02
